- System: Frings audiogenic seizure-susceptible mice
- test.settings: mouse, in vivo
Record form. Attribute: TD50 (rotorod performance, minimal motor impairment). Fill in for each entry.

Lookup result for CCC1(c2ccccc2)C(=O)NC(=O)NC1=O [Phenobarbitol, reference compound] ; measured TD50 (rotorod performance, minimal motor impairment): 68.8 nmol

Lookup result for Nc1nnc(-c2cccc(Cl)c2Cl)c(N)n1 [Lamotrigine, reference compound] ; measured TD50 (rotorod performance, minimal motor impairment): > 290 nmol

Lookup result for NC(=O)OCC(COC(N)=O)c1ccccc1 [Felbamate, reference compound] ; measured TD50 (rotorod performance, minimal motor impairment): > 630 nmol

* * *

- Tested on: Frings audiogenic seizure susceptible mice
- Assay type: in vivo
- test.settings: mouse, in vivo
Record form. Attribute: ED50. Fill in for each entry.
I only need the number, in nmol, no unit after it.

Lookup result for Nc1nnc(-c2cccc(Cl)c2Cl)c(N)n1 [Lamotrigine, reference compound] ; measured ED50: 146

Lookup result for CCCC(CCC)C(=O)O [Valproic Acid, reference compound] ; measured ED50: 566
